src = PubChem BioAssay (NCATS)

# Assay protocol: qHTS of pediatric cancer cell lines to identify multiple opportunities for drug repurposing: Primary screen for BT-12 cells (AID 1347101); further: nearly all actives have a fitted effect of over 25% in size; further: potency means the concentration at half of the fitted maximal effect
# Experimental context: BT-12 viability, CellTiter-Glo luminescence, 48 h; series mostly up to 57.3 µM
Results filed as inconclusive are left out. Calls of active or inactive are those of the source. The call rests on the fitted dose curve; in most records, active means well fitted cell-killing curve with a large enough effect; inconclusive means small, poorly fitted or top-dose-only effect; inactive means flat fitted curve, though single readings scatter.

>  <Molecule>
O=C(CCc1ccc(O)cc1)c1c(O)cc(O)cc1O[C@@H]1O[C@H](CO)[C@H](O)[C@H](O)[C@H]1O

>  <Potency>
inactive

$$$$
>  <Molecule>
CCC(CC)[C@H](NC(C)=O)[C@@H]1[C@H](O)[C@@H](C(=O)O)C[C@@H]1N=C(N)N

>  <Potency>
inactive

$$$$
>  <Molecule>
O=C(Nc1c(Cl)cncc1Cl)c1ccc(OC(F)F)c(OCC2CC2)c1

>  <Potency>
inactive

$$$$
>  <Molecule>
CCN(CC)CCNC(=O)c1ccc(N)cc1

>  <Potency>
inactive

$$$$
>  <Molecule>
CCN(CC)CCOc1ccc(C(=C(Cl)c2ccccc2)c2ccccc2)cc1

>  <Potency>
inactive

$$$$
>  <Molecule>
O=C1c2ccccc2-[n+]2ccc3c([nH]c4ccccc43)c21

>  <Potency>
6.85 µM (active)

$$$$
>  <Molecule>
c1cc(-c2sc(-c3ccncc3)c(-c3ccncc3)c2-c2ccncc2)ccn1

>  <Potency>
inactive

$$$$
>  <Molecule>
N[C@H](CSC(c1ccccc1)(c1ccccc1)c1ccccc1)C(=O)O

>  <Potency>
27.3 µM (active)

$$$$
>  <Molecule>
COc1cc2nc(-c3ccc(N4CCN(C)CC4)cc3)nc(NCCN3CCOCC3)c2cc1OC

>  <Potency>
0.153 µM (active)

$$$$
>  <Molecule>
C=C1C(=O)[C@@]23C(CC[C@@H]1[C@H]2O)[C@@]12CO[C@]3(O)[C@@H](O)[C@@H]1C(C)(C)CC[C@@H]2O (stereo not given in full)

>  <Potency>
3.43 µM (active)

$$$$
>  <Molecule>
O=C(NCCN1CCOCC1)c1ccc(Cl)cc1

>  <Potency>
inactive

$$$$
>  <Molecule>
Nc1ncnc2ccccc12

>  <Potency>
inactive

$$$$
>  <Molecule>
O=c1c(-c2ccc(O)cc2)coc2cc(O[C@@H]3O[C@H](CO)[C@H](O)[C@H](O)[C@H]3O)ccc12

>  <Potency>
inactive

$$$$
>  <Molecule>
O=C(NC1CCOCC1)c1ccc(-c2cc(-c3cn[nH]c3-c3ccccn3)ccn2)cc1

>  <Potency>
inactive

$$$$
>  <Molecule>
CC(C)(C(=O)NCC(F)(F)C(F)(F)F)C(=O)N[C@@H]1C(=O)Nc2ccccc2-c2ccccc21

>  <Potency>
1.09 µM (active)

$$$$
>  <Molecule>
COc1ccc(Cc2ccc(NC(N)=O)cc2)cc1-c1cccc(Cl)c1

>  <Potency>
inactive

$$$$
>  <Molecule>
COc1ccc(-c2coc3cc(O)ccc3c2=O)cc1

>  <Potency>
inactive

$$$$
>  <Molecule>
CC(=O)N(C)C1(c2ccccc2)CCN(CCC[C@]2(c3ccc(Cl)c(Cl)c3)CCCN(C(=O)c3ccccc3)C2)CC1

>  <Potency>
27.3 µM (active)

$$$$
>  <Molecule>
NS(=O)(=O)c1ccc(NC2=CC(=O)c3ccccc3C2=O)cc1

>  <Potency>
1.09 µM (active)

$$$$
>  <Molecule>
CC(C)(C)C(=O)Oc1ccc2c(c1)nc(NC(=O)c1cccc([N+](=O)[O-])c1)n2CCCO

>  <Potency>
inactive

$$$$

* * *

# Assay protocol: qHTS of pediatric cancer cell lines to identify multiple opportunities for drug repurposing: Primary screen for Saos-2 cells (AID 1347097); further: nearly all actives have a fitted effect of over 40% in size
# Experimental context: Saos-2 viability, CellTiter-Glo ATP luminescence, 48 h; series mostly up to 46 µM
# Protocol: Drug repurposing or repositioning has been offered as a strategy for drug development in oncology programs. This approach has special potential for childhood cancers and other rare or orphan diseases, where the expected return on new drug development has been a disincentive to pharmaceuticals. […] We employed a titration-based paradigm (quantitative high-throughput screening or qHTS), where all compounds were tested at multiple concentrations for their effect on cell viability. […]
Results filed as inconclusive are left out. The source made the active and inactive calls. Calls come from the whole dose curve; as a rule, active = well fitted cell-killing curve with a large enough effect; inconclusive = small, poorly fitted or top-dose-only effect; inactive = no such curve, though single readings can be large or run the other way.
Outcomes: t = active, f = inactive

>  <Compound>
CCOC1OC(=O)C[C@H]1NC(=O)[C@@H]1CCCN1C(=O)[C@@H](NC(=O)c1ccc(N)c(Cl)c1)C(C)(C)C (stereo partly specified)

>  <Assigned label>
t

$$$$
>  <Compound>
NC(=O)NN=Cc1ccc([N+](=O)[O-])o1

>  <Assigned label>
f

$$$$
>  <Compound>
O=C(O)c1ccccc1C(=O)Nc1ccc(-c2ccccc2)cc1

>  <Assigned label>
f

$$$$
>  <Compound>
CN(C)CCC=C1c2ccccc2COc2ccc(CC(=O)O)cc21

>  <Assigned label>
f

$$$$
>  <Compound>
CON=C(C(=O)N[C@@H]1C(=O)N2C(C(=O)OCOC(=O)C(C)(C)C)=C(C=Cc3scnc3C)CS[C@H]12)c1csc(N)n1

>  <Assigned label>
f

$$$$
>  <Compound>
O=C(NCc1ccncc1)C12C[C@H]3C[C@@H](C1)CC(c1ccc(Cl)cc1)(C3)C2

>  <Assigned label>
t

$$$$
>  <Compound>
COc1cc(NC(=O)c2ccc(-c3ccc(Cl)cc3)o2)cc(OC)c1

>  <Assigned label>
f

$$$$
>  <Compound>
COC[C@@H](c1ccc(C(F)(F)F)cc1)N1CCN(C2(C)CCN(C(=O)c3c(C)ncnc3C)CC2)C[C@H]1C

>  <Assigned label>
f

$$$$
>  <Compound>
COc1ccc2cccc(CCNC(C)=O)c2c1

>  <Assigned label>
f

$$$$
>  <Compound>
CC(C)(C)NC(=O)Nc1cccc(Nc2ncc(F)c(NC(C)(C)CO)n2)c1

>  <Assigned label>
f

$$$$
>  <Compound>
COC1CCC(N(C(=O)C2CCC(C)CC2)c2cc(C3=CCCCC3)sc2C(=O)O)CC1 (stereo unspecified)

>  <Assigned label>
f

$$$$
>  <Compound>
CO[C@@H](C(=O)N1Cc2[nH]nc(NC(=O)c3ccc(N4CCN(C)CC4)cc3)c2C1)c1ccccc1

>  <Assigned label>
t

$$$$
>  <Compound>
Cc1cc(OCCCc2c(C(=O)O)n(Cc3cccnc3)c3c(-c4c(COc5ccc(N6CCN([S+](C)(=O)[O-])CC6)cc5)nn(C)c4C)cccc23)cc(C)c1Cl

>  <Assigned label>
t

$$$$
>  <Compound>
COc1ccc2c(Oc3ccc(NC(=O)c4c(C)n(CC(C)(C)O)n(-c5ccccc5)c4=O)cc3F)ccnc2c1

>  <Assigned label>
t

$$$$
>  <Compound>
NC(=O)c1ccc2nc(-c3ccc(Oc4ccc(Cl)cc4)cc3)[nH]c2c1

>  <Assigned label>
f

$$$$
>  <Compound>
CC1(C)CCC2=C(O1)c1ccccc1C(=O)C2=O

>  <Assigned label>
t

$$$$

* * *

# Tested on: KB-3-1
# Assay protocol: Cytotoxic Profiling of Annotated Libraries Using Quantitative High-Throughput Screening (AID 1296008); further: on the % scale 0 is the no-effect control and ±100 the full control effect; nearly all actives have a fitted effect of over 60% in size
# Experimental context: Five cell lines viability, CellTiter-Glo ATP luminescence, 48-72 h; active compounds read low
Inconclusive results are not listed. Active and inactive are the calls of the source. The call rests on the fitted dose curve; in most records, active means well fitted inhibition curve with a large enough effect; inconclusive means small, poorly fitted or top-dose-only effect; inactive means flat fitted curve, though single readings scatter.
Consider the following molecules and their measured max response readings.
Property name: max response

>  <Molecule>
CC(C)(C)COc1ccc(-n2cc(C(=O)O)cn2)cc1C#N

>  <Property name>
max response

>  <Endpoint result>
7.58% (inactive)

$$$$
>  <Molecule>
COc1cccc(-c2cc(=O)c3ccccc3o2)c1N

>  <Property name>
max response

>  <Endpoint result>
-0.147% (inactive)

$$$$
>  <Molecule>
CN1C[C@H]2c3ccccc3Oc3ccc(Cl)cc3[C@@H]2C1

>  <Property name>
max response

>  <Endpoint result>
-7.18% (inactive)

$$$$
>  <Molecule>
C[N+](C)(C)CCCCCC[N+](C)(C)C

>  <Property name>
max response

>  <Endpoint result>
21.4% (inactive)

$$$$
>  <Molecule>
NC(=O)c1cccc2[nH]c(-c3ccc([C@H]4CCCN4)cc3F)nc12

>  <Property name>
max response

>  <Endpoint result>
-3.95% (inactive)

$$$$
>  <Molecule>
CC(C)(C)c1cc(C(=O)O)c(NC(=O)Nc2ccc3[nH]ncc3c2)s1

>  <Property name>
max response

>  <Endpoint result>
-9% (inactive)

$$$$
>  <Molecule>
COC(=O)N[C@H](C(=O)N1CCC[C@@H]1c1ncc(-c2ccc(-c3ccc(-c4cnc([C@@H]5CCCN5C(=O)[C@@H](NC(=O)OC)C(C)C)[nH]4)cc3)cc2)[nH]1)C(C)C

>  <Property name>
max response

>  <Endpoint result>
1.64% (inactive)

$$$$
>  <Molecule>
NC(=O)[C@@H](CCC(F)(F)F)N(Cc1ccc(-c2ncon2)cc1F)S(=O)(=O)c1ccc(Cl)cc1

>  <Property name>
max response

>  <Endpoint result>
-20.8% (inactive)

$$$$
>  <Molecule>
C[C@@H](O)[C@H]1C(=O)N2C(C(=O)O)=C(S[C@@H]3CN[C@H](C(=O)N(C)C)C3)[C@H](C)[C@H]12

>  <Property name>
max response

>  <Endpoint result>
-4.18% (inactive)

$$$$
>  <Molecule>
NC1=N[C@@]2(c3cc(NC(=O)c4ccc(F)cn4)ccc3F)COC[C@@H]2CS1

>  <Property name>
max response

>  <Endpoint result>
8.68% (inactive)

$$$$
>  <Molecule>
C[C@]12CC[C@@H]3c4ccc(O)cc4C[C@@H](CCCCCCCCCS(=O)CCCC(F)(F)C(F)(F)F)[C@H]3[C@H]1CC[C@H]2O (stereo partly specified)

>  <Property name>
max response

>  <Endpoint result>
4.81% (inactive)

$$$$
>  <Molecule>
Cc1ccc(Nc2cc(-c3cccc(N4C(=O)c5ccccc5C4=O)c3)ncn2)cc1NS(C)(=O)=O

>  <Property name>
max response

>  <Endpoint result>
6.32% (inactive)

$$$$
>  <Molecule>
C[N+]1(C)[C@@H]2CC(OC(=O)[C@H](CO)c3ccccc3)C[C@H]1[C@H]1O[C@@H]12 (stereo partly specified)

>  <Property name>
max response

>  <Endpoint result>
2.27% (inactive)

$$$$
>  <Molecule>
CCN(CC)CCOC(=O)c1ccc(N)cc1

>  <Property name>
max response

>  <Endpoint result>
14% (inactive)

$$$$
>  <Molecule>
CC=CC[C@@H](C)C(=O)[C@H]1C(=O)N[C@@H](C(C)C)C(=O)N(C)CC(=O)N(C)[C@@H](CC(C)C)C(=O)N[C@@H](C(C)C)C(=O)N(C)[C@@H](CC(C)C)C(=O)N[C@@H](C)C(=O)N[C@H](C)C(=O)N(C)[C@@H](CC(C)C)C(=O)N(C)[C@@H](CC(C)C)C(=O)N(C)[C@@H](C(C)C)C(=O)N1C

>  <Property name>
max response

>  <Endpoint result>
-1.28% (inactive)

$$$$
>  <Molecule>
CCN1CCC[C@H]1CNC(=O)c1cc(S(N)(=O)=O)ccc1OC

>  <Property name>
max response

>  <Endpoint result>
-2.45% (inactive)

$$$$
>  <Molecule>
COCCOC(=O)C1=C(C)NC2=C(C(=O)CC(c3ccccc3OC)C2)C1c1cccc(O)c1 (stereo unspecified)

>  <Property name>
max response

>  <Endpoint result>
-11.3% (inactive)

$$$$
>  <Molecule>
c1ccc2c(Cc3c[nH]c4ccccc34)c[nH]c2c1

>  <Property name>
max response

>  <Endpoint result>
-13.3% (inactive)

$$$$
>  <Molecule>
CC1(C)CCC2=C(O1)c1ccccc1C(=O)C2=O

>  <Property name>
max response

>  <Endpoint result>
7.27% (inactive)

$$$$
>  <Molecule>
O=C1Nc2ccc(Cl)cc2C(C#CC2CC2)(C(F)(F)F)O1 (stereo unspecified)

>  <Property name>
max response

>  <Endpoint result>
-17.5% (inactive)

$$$$
>  <Molecule>
O=C1C[C@@H](c2ccc(O)cc2)Oc2cc(O)cc(O)c21

>  <Property name>
max response

>  <Endpoint result>
7.82% (inactive)

$$$$
